Every entry's value here was drawn from paper PMC12250785.

For each entry below, report its IC50 value.

// query Enter measured IC50, system AChE (E.C. 3.1.1.7) (Electrophorus electricus), for the compound shown: O=c1c2cc(-c3ccc(F)c(Cl)c3)ccc2nc2n1CCCC2
// result > 50 µM

// query # return IC50 of O=c1c2cc(-c3cccc4ccccc34)ccc2nc2n1CCCC2 (system: AChE (E.C. 3.1.1.7) (Electrophorus electricus))
Sequence (O42275 24-633): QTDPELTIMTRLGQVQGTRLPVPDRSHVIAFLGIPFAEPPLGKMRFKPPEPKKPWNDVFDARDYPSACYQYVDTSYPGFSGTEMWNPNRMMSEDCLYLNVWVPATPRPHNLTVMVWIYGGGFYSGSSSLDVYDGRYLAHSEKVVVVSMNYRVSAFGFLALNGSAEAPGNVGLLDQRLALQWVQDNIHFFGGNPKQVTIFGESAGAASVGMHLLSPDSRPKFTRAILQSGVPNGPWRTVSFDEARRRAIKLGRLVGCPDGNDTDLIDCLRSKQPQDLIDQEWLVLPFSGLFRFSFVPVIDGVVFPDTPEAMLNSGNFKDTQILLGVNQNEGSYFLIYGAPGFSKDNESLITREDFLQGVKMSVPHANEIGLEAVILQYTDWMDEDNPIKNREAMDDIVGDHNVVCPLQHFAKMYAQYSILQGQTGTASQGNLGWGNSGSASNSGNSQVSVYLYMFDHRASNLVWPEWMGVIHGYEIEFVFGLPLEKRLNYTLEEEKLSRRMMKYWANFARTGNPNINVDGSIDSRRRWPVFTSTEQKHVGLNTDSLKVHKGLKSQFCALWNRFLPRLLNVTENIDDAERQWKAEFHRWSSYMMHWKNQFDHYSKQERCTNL
// result > 50 µM

// query State IC50 on AChE (E.C. 3.1.1.7) (Electrophorus electricus). Entry: O=c1c2cc(-c3ccc(C(F)(F)F)cc3)ccc2nc2n1CCCC2
// result > 50 µM

// query # lookup: AChE (E.C. 3.1.1.7) (Electrophorus electricus) IC50, key = O=c1c2cc(-c3ccccc3C(F)(F)F)ccc2nc2n1CCCC2
// result > 50 µM

// query Report measured IC50 on AChE (E.C. 3.1.1.7) (Electrophorus electricus); entry: CC(=O)c1cccc(-c2ccc3nc4n(c(=O)c3c2)CCCC4)c1
// result 11.1 µM

// query Tell me IC50 of Cc1ccccc1-c1ccc2nc3n(c(=O)c2c1)CCC3 when tested on AChE (E.C. 3.1.1.7) (Electrophorus electricus).
// result > 50 µM

* * *

Target: AChE (E.C. 3.1.1.7) (Electrophorus electricus)
pIC50: −log10 of the molar value.
Note to self: values exactly at 5 are true. So pIC50 at or above 5 is true, below is false.

// query Decide: pIC50 of COc1ccc(Cl)cc1-c1ccc2nc3n(c(=O)c2c1)CCC3 >= 5?
// result false

// query Dear colleague, could you confirm whether COc1ccc(-c2ccc3nc4n(c(=O)c3c2)CCCC4)cc1 has pIC50 at or above 5?
// result false

// query Kindly determine if pIC50 recorded for O=c1c2cc(-c3ccc(F)c(Cl)c3)ccc2nc2n1CCC2 is above or exactly 5.
// result true

// query Kindly determine if pIC50 recorded for COc1cccc(-c2ccc3nc4n(c(=O)c3c2)CCCC4)c1 is above or exactly 5.
// result false

// query Quick check, pIC50 >= 5? Cc1ccccc1-c1ccc2nc3n(c(=O)c2c1)CCCC3
// result false

// query hey, is pIC50 for this one >= 5? O=c1c2cc(-c3ccc(C(F)(F)F)cc3)ccc2nc2n1CCC2
// result false

// query Has Cc1cccc(-c2ccc3nc4n(c(=O)c3c2)CCC4)c1 a recorded pIC50 greater than or equal to 5?
// result false

// query Tell me whether pIC50 is at least 5 here: Cc1cccc(-c2ccc3nc4n(c(=O)c3c2)CCCC4)c1
// result true

// query Check the entry CC(=O)c1cccc(-c2ccc3nc4n(c(=O)c3c2)CCC4)c1 : does pIC50 equal or exceed 5?
// result false

// query pIC50 >= 5 for CC(C)(C)c1ccc(-c2ccc3nc4n(c(=O)c3c2)CCCC4)cc1 ?
// result false

// query hey, is pIC50 for this one >= 5? O=c1c2cc(-c3ccc(F)cc3)ccc2nc2n1CCC2
// result false
